- EXPERIMENTAL TARGET: T1, human IL-17A/IL-17F heterodimer (human, UniProt Q16552 24-155; Q96PD4 31-163, limits assumed)
- T1 sequence (looked up) 1: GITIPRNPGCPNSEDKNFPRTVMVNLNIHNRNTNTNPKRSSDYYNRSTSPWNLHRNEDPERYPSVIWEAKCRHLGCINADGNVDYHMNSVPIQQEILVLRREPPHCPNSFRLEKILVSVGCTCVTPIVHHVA
- T1 sequence (looked up) 2: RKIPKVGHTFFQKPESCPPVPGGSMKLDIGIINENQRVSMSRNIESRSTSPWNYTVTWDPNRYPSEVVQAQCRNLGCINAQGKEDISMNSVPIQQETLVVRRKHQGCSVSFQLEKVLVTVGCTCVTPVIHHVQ
- MEASUREMENT PROTOCOL: cell-based or functional assay
In this section, each of the binders is paired with its reported IC50, IL-6 secretion by MEF cells, cytokine at 17.5 ng/ml.
Dear colleague, please return just the value in nM, with no unit written.

Please report the recorded IC50, IL-6 secretion by MEF cells, cytokine at 17.5 ng/ml for 39F12 antibody (antibody, IgG4, V domains shown, also called Mab06a; 39F12 IgG4) VH: QVQLVQSGAEVKKPGSSVKVSCKASGGTLSSYAFSWVRQAPGQGLEWMGGIIPFFGTTNYAQKFQGRVIITADESTNTAYMELSGLRSEDTAVYYCARDRDYYGLGSPFYYYGMDVWGQGTTVTVSS VL: EIVLTQSPDFQSVTPKEKVTITCRASQSIGSSLHWYQQKPDQSPKLLIKYASQSFSGVPSRFSGSGSGTDFTLTINSLEAEDAAAYYCHQSSSLPWTFGQGTKVEIK .
11

Please report the recorded IC50, IL-6 secretion by MEF cells, cytokine at 17.5 ng/ml for 8B11 antibody (antibody, IgG3, V domains shown) VH: EVQLVESGGGLVHPGGSLRLSCAASGFTFSSFNMDWVRQAPGKGLEWVSSISTTSRIIYSADSVKGRFTISRDNARNSLYLQMNSLRDEDTAVYYCARVSYYGHGFDYWGQGTLVTVSS VL: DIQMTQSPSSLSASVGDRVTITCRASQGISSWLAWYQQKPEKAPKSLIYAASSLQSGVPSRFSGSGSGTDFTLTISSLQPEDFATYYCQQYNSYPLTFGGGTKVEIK .
240

Please report the recorded IC50, IL-6 secretion by MEF cells, cytokine at 17.5 ng/ml for 15B7 antibody (antibody, IgG4, V domains shown) VH: QVQLVQSGAEVKKPGSSVKVSCKASGGTLSSYAFSWVRQAPGQGLEWMGGIIPFFGTAHYAQKFQGRVTITADESTNTAYMELSSLRSEDTAVYYCARDRDYYGSGSPFHFSGLDVWGQGTTVTVSS VL: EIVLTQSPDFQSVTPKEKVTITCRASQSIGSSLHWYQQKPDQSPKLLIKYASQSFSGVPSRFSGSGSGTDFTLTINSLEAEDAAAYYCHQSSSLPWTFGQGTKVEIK .
160

---
Please report the recorded IC50, IL-6 secretion by MEF cells, cytokine at 17.5 ng/ml for 30D12BF antibody (antibody, V domains shown) VH: QVQLVQSGAEVKKPGASVKVSCKASGYTFTSYDINWVRQATGQGLEWMGWLNPDSGVIRYAQKFQGRVTMTRDTSISTAYMELSSLRSEDTAVYYCAREWFGELPSYYFYSGMDVWGQGTTVTVSS VL: EIVLTQSPATLSLSPGERATLSCRASQSVSSYLAWYQQKPGQAPRLLIYDASNRATGIPARFSGSGSGTDFTLTISSLEPEDFAVYYCQQRSNWPPTFGPGTKVDIK .
27

Please report the recorded IC50, IL-6 secretion by MEF cells, cytokine at 17.5 ng/ml for 38B1 antibody (antibody, IgG1, V domains shown, also called 38B1 IgG1) VH: EVQLVESGGGLVQPGRSLRLSCAASGFTFDDFAMHWVRQAPGKGLEWVSGINWNSGSIGYADSVKGRFTISRDNAKNSLYLQMNSLRAEDTALYYCAKDIAAAGEFYFDMDVWGQGTTVTVSS VL: EIVLTQSPATLSLSPGERATLSCRASQSVSSYLAWYQQKPGQAPRLLIYDASNRATGIPARFSGSGSGTDFTLTISSLEPEDFAVYYCQQRSNWPPTFGQGTKLEIK .
910

These data points were gathered from patent US20130195872A1.
